ASSAY METHOD TEXT: Solubility: concentration of AnxA1 in solution/supernatant by UV-VIS
Type: physicochemical
COND: 0.9% NaCl (154 mM) in Milli Q water, saline or isotonic; 20 mg freeze-dried AnxA1 per mL 0.9% NaCl (154 mM) in Milli Q, neutral pH, over night at room temperature on rotation, spun down
Ends that are not written are not given here.
MEASURED ENDPOINT: solubility thermodynamic

### Prompt What measured solubility thermodynamic goes with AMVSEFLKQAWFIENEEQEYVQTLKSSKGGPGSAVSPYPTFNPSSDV-NH2 [AnxA1] ?
### Response ~170 µg/mL
